meta.source: patent US20240254115A1

Listed next: entries and their corresponding Ki.
- target_desc: human σ2/TMEM97 receptor (Homo sapiens, UniProt Q5BJF2)
- Sequence (Q5BJF2 whole entry): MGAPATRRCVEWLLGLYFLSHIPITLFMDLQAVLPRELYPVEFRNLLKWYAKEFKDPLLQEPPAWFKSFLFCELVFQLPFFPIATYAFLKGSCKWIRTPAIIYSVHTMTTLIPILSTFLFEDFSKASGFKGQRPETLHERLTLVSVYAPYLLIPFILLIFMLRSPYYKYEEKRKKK
- procedure_details: Binding assay to human σ2/TMEM97 receptor
- details: transfected HEK-293 membranes, 10 nM [3H]-DTG, 25° C. 120 minutes; + may also stand for 1-50% inhibition at 1 or 10 μM; read-out: Binding σ-2 Ki

INSERT INTO assay_data (structure, measured) VALUES
  ('O=S(=O)(c1ccc(N2CCOCC2)nc1)N1CCC[C@H](CNCc2ccc(O)nc2)C1', '100 to 500 nM'),
  ('O=S(=O)(NC1CN(Cc2ccccc2)C1)c1ccc(N2CCOCC2)nc1', '> 1000 nM'),
  ('O=S(=O)(NC1CCN(Cc2ccccc2)CC1)c1ccc(N2CCOCC2)nc1', '> 1000 nM'),
  ('CC(C)N([C@H]1CCN(Cc2ccc(C#N)cc2)C1)S(=O)(=O)c1ccc(N2CCOCC2)nc1', '> 1000 nM');

--- query ---
Requested field: Ki. Item: CN(Cc1ccc(F)cc1)[C@H]1CC[C@H](NS(=O)(=O)c2ccc(N3CCOCC3)nc2)CC1
< 100 nM

###

- target_desc: human σ2/TMEM97 receptor (Homo sapiens)
- procedure_details: Binding assay to human σ2/TMEM97 receptor
- details: transfected HEK-293 membranes, 10 nM [3H]-DTG, 25° C. 120 minutes; + may also stand for 1-50% inhibition at 1 or 10 μM; read-out: Binding σ-2 Ki
measured_metric: Ki

INSERT INTO measurements (structure, measured) VALUES
  ('O=S(=O)(c1ccc(N2CCC(F)(F)CC2)nc1)N1CCCC2(CCN(Cc3ccccc3)CC2)C1', '< 100 nM'),
  ('CN(Cc1ccccc1)[C@H]1CC[C@H](NS(=O)(=O)c2ccc(N3CCC4(CCOC4)CC3)nc2)CC1', '< 100 nM'),
  ('N#Cc1cc(CN2CCC3(CC2)CCN(S(=O)(=O)c2ccc(N4CCOC4=O)nc2)CC3)ccc1F', '< 100 nM'),
  ('CN(Cc1ccccc1)[C@H]1CCN(S(=O)(=O)c2ccc(N3CCOCC3)nc2)C1', '> 1000 nM');

Requested field: Ki. Item: CN(Cc1ccccc1)C1CCN(S(=O)(=O)c2ccc(N3CCCC3=O)nc2)CC1
< 100 nM

Requested field: Ki. Item: CC(C)(C)CCN1CCC2(CC1)CCN(S(=O)(=O)c1ccc(N3CCCC3=O)nc1)CC2
< 100 nM

Requested field: Ki. Item: O=S(=O)(N[C@@H]1CCN(Cc2ccc(F)cc2)C1)c1ccc(N2CCOCC2)nc1
> 1000 nM

Requested field: Ki. Item: CC(C)(C)CCN1CCC2(CC1)CCN(S(=O)(=O)c1ccc(N3CCOC3=O)nc1)C2
< 100 nM

Requested field: Ki. Item: CN(Cc1ccccc1)[C@H]1CC[C@H](NS(=O)(=O)c2ccc(N3CCCOCC3)nc2)CC1
< 100 nM

Requested field: Ki. Item: CN([C@H]1CCN(Cc2ccccc2)C1)S(=O)(=O)c1ccc(N2CCOCC2)nc1
> 1000 nM

###

- target_desc: human σ2/TMEM97 receptor (Homo sapiens, UniProt Q5BJF2)
- procedure_details: Binding assay to human σ2/TMEM97 receptor
- details: transfected HEK-293 membranes, 10 nM [3H]-DTG, 25° C. 120 minutes; + may also stand for 1-50% inhibition at 1 or 10 μM; read-out: Binding σ-2 Ki
measured_metric: Ki

# example entries with known answers
INSERT INTO assay_data (compound, target_desc, measured_metric, measured) VALUES
  ('O=S(=O)(N[C@@H]1CCN(Cc2ccccc2)C1)c1ccc(N2CCOCC2)nc1 [Example 3]', 'human σ2/TMEM97 receptor (Homo sapiens, UniProt Q5BJF2)', 'Ki', '> 1 µM'),
  ('CC(C)(C)CCN1CCC2(CCCN(S(=O)(=O)c3ccc(N4CCOCC4=O)nc3)C2)CC1 [Example 120]', 'human σ2/TMEM97 receptor (Homo sapiens, UniProt Q5BJF2)', 'Ki', '< 0.1 µM'),
  ('CC(C)(C)CCN1CCC2(CCCN(S(=O)(=O)c3ccc(C4CCOCC4)nc3)C2)CC1 [Example 116]', 'human σ2/TMEM97 receptor (Homo sapiens, UniProt Q5BJF2)', 'Ki', '< 0.1 µM');

Requested field: Ki. Item: CN(CCC(C)(C)C)[C@H]1CC[C@H](NS(=O)(=O)c2ccc(N3CCC4(CCOC4)CC3)nc2)CC1 [Example 181]
< 0.1 µM

Requested field: Ki. Item: O=S(=O)(N[C@@H]1CCN(Cc2ccccc2)C1)c1ccc(N2[C@@H]3CC[C@H]2COC3)nc1 [Example 27]
> 1 µM
